Value source: patent US20240317847A1

The entries below come with measured IC50, RGA 2 values attached.
Target: T1, human IL-11 (human, UniProt P20809 22-199)
T1 sequence: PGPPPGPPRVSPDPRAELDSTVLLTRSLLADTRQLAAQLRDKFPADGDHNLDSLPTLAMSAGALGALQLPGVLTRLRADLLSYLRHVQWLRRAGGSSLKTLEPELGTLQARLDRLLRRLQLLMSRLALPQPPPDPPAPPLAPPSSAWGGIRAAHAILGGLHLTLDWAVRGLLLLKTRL
Assay: cell-based or functional assay
Please append the unit to your numeric answer.

Answer with reported IC50, RGA 2 of TPP-31309 (antibody, IgG4, V domains shown) VH: EVQLLESGGGLVQPGGSLRLSCAASGFTFSHYDMNWLRQAPGKGLEWVGVISYDSSNKFYADFVKGRFTISRDNSKNTLYLQMNSLRAEDTAVYYCARTPGSHFDYWGQGTLVTVSS VL: QSVLTQPPSASGTPGQRVTISCSGSSSNIGNNAVNWYQQLPGTAPKLLIYYDDLLPSGVPDRFSGSKSGTSASLAISGLRSEDEADYYCSAWDDSLQGVVFGGGTKLTVL 122 nM

Now look at this entry.
Answer with reported IC50, RGA 2 of TPP-31296 (antibody, IgG4, V domains shown, hIgG4 SPLE, lambda) VH: EVQLLESGGGLVQPGGSLRLSCAASGFTFSHYDMNWLRQAPGKGLEWVGVISYDGSNKFYADSVKGRFTISRDNSKNTLYLQMNSLRAEDTAVYYCARTPGSHFDYWGQGTLVTVSS VL: QSVLTQPPSASGTPGQRVTISCSGSSSNIGNNAVNWYQQLPGTAPKLLIYYDDLLPSGVPDRFSGSKSGTSASLAISGLRSEDEADYYCSAWDDSLNGVVFGGGTKLTVL 158 nM
